Form field: normalized growth (one value per entry).
Assay: chemical genetic growth profiling, strain panel (AID 1159580);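 also: tested at 20 µM; growth read once vehicle control cultures reached saturation at 30 °C; 1 = growth at the plate median or of vehicle wells; lower values mean less growth of the strain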
Settings: S. cerevisiae deletion strains, growth OD, locus YJR075W, strain HOC1, active compounds read low
In all, about 5,500 compounds went through this assay and about 2,000 (36%) were called active. Roughly 18% stayed inconclusive and do not appear here. The list shows a part of the results.
Field format: numeric only.

For the compound O=C1c2ccccc2C(=O)N1CN1CCC(O)(c2ccc(Cl)cc2)CC1 , what normalized growth is on record?
0.987

For the compound O=C1NCN(c2ccccc2)C12CCN(CCCC(c1ccc(F)cc1)c1ccc(F)cc1)CC2 , what normalized growth is on record?
0.998

For the compound CCSc1ncccc1C(=O)N[C@@H](CCSC)C(=O)OC , what normalized growth is on record?
1.01

For the compound CC(C)(C)OC(=O)NCc1n[nH]c(=S)n1-c1ccccc1 , what normalized growth is on record?
0.995

For the compound Cn1c2c(c3ccccc31)/C(=N\OC(=O)c1ccc(Cl)cc1Cl)CCC2 , what normalized growth is on record?
1.01

For the compound COc1cc(C)c2c(=O)c3c(O)cc(OC)cc3oc2c1 , what normalized growth is on record?
1.01

For the compound Cc1ccc(SC(=O)c2cccnc2Oc2ccccc2)cc1 , what normalized growth is on record?
0.985

For the compound CC(C)(C)c1ccc(Oc2ncccc2NC(=O)c2ccccc2C(F)(F)F)cc1 , what normalized growth is on record?
0.988

For the compound NC(=NS(=O)(=O)c1cc(Cl)c(Oc2ccc([N+](=O)[O-])cc2Cl)c(Cl)c1)c1cccnc1 , what normalized growth is on record?
0.992

For the compound CCCN(CC1CC1)c1nc(C)nc(Nc2c(Cl)cc(Cl)cc2Cl)c1Cl , what normalized growth is on record?
1.01

For the compound O=C(Nc1ccccc1)N1CCN(C(c2ccccc2)c2ccccc2)CC1 , what normalized growth is on record?
1.02

For the compound COP(N)(=O)SC (stereo unspecified) , what normalized growth is on record?
1.01

---

Form field: normalized growth (one value per entry).
Test: chemical genetic growth profiling, strain panel (AID 1159580)
Details: S. cerevisiae deletion strains, growth OD, locus YGR135W, strain pre9, active compounds read low
Out of some 5,500 compounds screened, about 2,000 (36%) were called active. Not shown: some 18% with an inconclusive outcome. Some of the results follow.
Field format: numeric only.

compound="COC(=O)C[C@H]1C(C)(C)[C@@H](O)[C@@H]2CC3=C4CC(O)O[C@@H](c5ccoc5)[C@]4(C)CCC3[C@@]1(C)C2=O (some centres undefined)" assay_metric="normalized growth" readout_number=0.95
compound=C[N+]1(C)C[C@H](O)[C@H](C(=O)[O-])C1 assay_metric="normalized growth" readout_number=1
compound=COc1ccc(-c2cc(=O)c3c(O)c(OC)c(O[C@H]4O[C@H](CO[C@@H]5O[C@@H](C)[C@H](O)[C@@H](O)[C@H]5O)[C@@H](O)[C@H](O)[C@H]4O)cc3o2)cc1 assay_metric="normalized growth" readout_number=0.993

# context switch: different compound, same normalized growth
For the compound CC(=O)Oc1ccccc1C(=O)Oc1ccccc1C(=O)O , what normalized growth is on record?
0.999

---

Experiment: chemical genetic growth profiling, strain panel (AID 1159580)
Details: S. cerevisiae deletion strains, growth OD, locus YJL168C, strain set2
Screen size: about 5,500 compounds; about 2,000 (36%) were called active. Roughly 18% stayed inconclusive and do not appear here. Cut-off read from the data, not from the text of the source: active = normalized growth mostly below about 0.91 (no sharp cut-off); inconclusive = no clear call, values can overlap the other calls; inactive = mostly above about 0.92. This is one part of the list.
Could you please pick one outcome from this set? active, inactive

Below, 2 compounds whose answers are already recorded.
compound="Cc1ccccc1N1C(=O)c2cc(S(N)(=O)=O)c(Cl)cc2NC1C (centres undefined)" category_label=inactive
compound="COC(=O)CC1C(C)(C)C(OC(C)=O)[C@@H]2[C@@H](OC(C)=O)[C@]34O[C@@]2(O)[C@]1(C)C3CC[C@]1(C)C4=CC(=O)O[C@H]1c1ccoc1 (some centres undefined)" category_label=inactive

For the next question, use this compound.
// param item: O=c1c(O)cc([C@H]2Oc3cc(O)cc(O)c3C[C@H]2O)cc2c([C@H]3Oc4cc(O)cc(O)c4C[C@H]3O)cc(O)c(O)c12 ; yields the recorded call
inactive

---

Form field: normalized growth (one value per entry).
Assay: chemical genetic growth profiling, strain panel (AID 1159580)
Conditions: S. cerevisiae deletion strains, growth OD, locus YPL106C, strain sse1, active compounds read low
The whole screen tested about 5,500 compounds, of which about 2,000 (36%) were called active. Another 18% or so got no clear call; they are omitted. The list shows a part of the results.
Field format: numeric only.

See these solved cases before continuing.
compound="COC1=CC(C)[C@@H]2C[C@H]3OC(=O)C[C@H]4C(C)=C(OC)C(=O)C([C@@]34C)[C@@]2(C)C1=O (some centres undefined)" readout_number=0.978
compound=NC(=O)c1cc([N+](=O)[O-])cc([N+](=O)[O-])c1 readout_number=1.02
compound=COc1ccccc1N1CCN(CCCNc2cc(=O)n(C)c(=O)n2C)CC1 readout_number=1.01
compound="COP(N)(=O)SC (centres undefined)" readout_number=1

For the compound C[C@H]1[C@H](C)CC[C@]2(C(=O)O)CC[C@]3(C)C(=CCC4[C@@]5(C)C[C@@H](O)[C@H](O)[C@@](C)(CO)C5CC[C@]43C)[C@H]12 (some centres undefined) , what normalized growth is on record?
1.01

For the compound NC[C@H]1O[C@H](O[C@H]2[C@H](O)[C@@H](O[C@H]3O[C@H](CO)[C@@H](O)[C@H](N)[C@H]3O)[C@H](N)C[C@@H]2N)[C@H](N)[C@@H](O)[C@@H]1O , what normalized growth is on record?
1.01

For the compound Nc1ccc(S(=O)(=O)Nc2ncccn2)cc1 , what normalized growth is on record?
0.983

For the compound CC(C)=CC1C(CO)C1(C)C (centres undefined) , what normalized growth is on record?
1.01

For the compound CC(C)C[C@@H](NC(=O)OCC1c2ccccc2-c2ccccc21)C(=O)O , what normalized growth is on record?
1.02

---

Form field: normalized growth (one value per entry).
Experiment: chemical genetic growth profiling, strain panel (AID 1159580);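 also: tested at 20 µM; growth read once vehicle control cultures reached saturation at 30 °C; 1 = growth at the plate median or of vehicle wells; lower values mean less growth of the strain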
Settings: S. cerevisiae deletion strains, growth OD, locus YNL175C, strain NOP13, active compounds read low
Screen size: about 5,500 compounds; about 2,000 (36%) were called active. Inconclusive results (about 18%) are left out. Some of the results follow.
Field format: numeric only.

See these solved cases before continuing.
compound=CP(=O)(O)CCCN assay_metric="normalized growth" readout_number=0.996
compound=O=C(O)CN(CCN(CC(=O)O)CC(=O)O)CCN(CC(=O)O)CC(=O)O assay_metric="normalized growth" readout_number=1.01
compound="O=C(NCCNCC(O)COc1ccc(O)cc1)N1CCOCC1 (stereo not drawn)" assay_metric="normalized growth" readout_number=0.998

For the compound CCN(CC)C(=O)N[C@@H]1C[C@@H]2c3cccc4[nH]cc(c34)C[C@H]2N(C)C1 , what normalized growth is on record?
0.993

For the compound O=C(CCCN1CCC2(CC1)C(=O)N(CCc1ccc(N=C=S)cc1)CN2c1ccccc1)c1ccc(F)cc1 , what normalized growth is on record?
1

For the compound CC(C)NCC(O)COc1ccc(CCOCC2CC2)cc1 (stereo not drawn) , what normalized growth is on record?
1.02

For the compound COc1ccccc1N1CCN(CCN(C(=O)c2ccc(I)cc2)c2ccccn2)CC1 , what normalized growth is on record?
0.983

For the compound Cc1ccc(OCC(O)C(C)NC(C)C)c2c1CCC2 (stereo not drawn) , what normalized growth is on record?
0.982

---

Experiment: chemical genetic growth profiling, strain panel (AID 1159580);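 also: tested at 20 µM; growth read once vehicle control cultures reached saturation at 30 °C; 1 = growth at the plate median or of vehicle wells; lower values mean less growth of the strain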
Details: S. cerevisiae deletion strains, growth OD, locus YOR265W, strain rbl2, active compounds read low
The whole screen tested about 5,500 compounds, of which about 2,000 (36%) were called active. About 18% were inconclusive and are not listed. The list shows a part of the results.
Quick rule for you: normalized growth under 1 gets met, anything else gets not met.

Below, 3 compounds whose answers are already recorded.
compound=O=c1c(O)cc([C@H]2Oc3cc(O)cc(O)c3C[C@H]2O)cc2c([C@H]3Oc4cc(O)cc(O)c4C[C@H]3O)cc(O)c(O)c12 category_label="not met"
compound=N#Cc1c(Cl)cccc1Cl category_label=met
compound=O=C(/C=C(\O)c1ccccc1)c1ccccc1O category_label=met

For the next question, use this compound.
Is 1 strictly greater than the compound's reported normalized growth? compound: CC1(C)S[C@@H]2[C@H](NC(=O)C(C(=O)O)c3ccccc3)C(=O)N2[C@H]1C(=O)O (stereo partly specified)
met

---

Form field: normalized growth (one value per entry).
Test: chemical genetic growth profiling, strain panel (AID 1159580);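 also: tested at 20 µM; growth read once vehicle control cultures reached saturation at 30 °C; 1 = growth at the plate median or of vehicle wells; lower values mean less growth of the strain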
Conditions: S. cerevisiae deletion strains, growth OD, locus YCR088W, strain abp1, active compounds read low
Out of some 5,500 compounds screened, about 2,000 (36%) were called active. Roughly 18% stayed inconclusive and do not appear here. Some of the results follow.
Field format: numeric only.

compound="CCC(=O)O[C@]1(C(=O)CCl)[C@@H](C)CC2C3CCC4=CC(=O)C=C[C@]4(C)[C@@]3(F)[C@@H](O)C[C@@]21C (some centres not stated)" readout_number=1.02
compound="CC(=O)OC1CC[C@@]2(C)C(CCC3C2CC[C@]2(C)C(C4=CC(=O)OC4)C(OC(C)=O)CC32O)C1 (some centres not stated)" readout_number=0.999
compound="CCC(=O)OCC(=O)C1(OC(=O)CC)C(C)CC2C3C(Cl)CC4=CC(=O)C=CC4(C)C3C(O)CC21C (configuration not stated)" readout_number=1.03
compound="CC(=O)OCC(=O)[C@@]1(O)CCC2C3C[C@H](C)C4=CC(=O)C=CC4(C)C3[C@@H](O)CC21C (some centres not stated)" readout_number=1.02
compound="C/C=C/CC(C)C(O)C1C(=O)NC(CC)C(=O)N(C)CC(=O)N(C)C(CC(C)C)C(=O)NC(C(C)C)C(=O)N(C)C(CC(C)C)C(=O)NC(C)C(=O)NC(C)C(=O)N(C)C(CC(C)C)C(=O)N(C)C(CC(C)C)C(=O)N(C)C(C(C)C)C(=O)N1C (configuration not stated)" readout_number=1.02

For the compound N#Cc1c(Cl)cccc1Cl , what normalized growth is on record?
0.985

For the compound CC1=CC(=O)C(C(C)C)=CC1=O , what normalized growth is on record?
0.777

For the compound C[C@H]1O[C@H](O[C@H]2[C@H](O)[C@@H](O)[C@@H](O[C@H]3[C@H](O)[C@@H](O)C(O)O[C@@H]3CO)O[C@@H]2CO)[C@H](O)[C@@H](O)[C@@H]1N[C@H]1C=C(CO)[C@@H](O)[C@H](O)[C@H]1O (some centres not stated) , what normalized growth is on record?
0.991

For the compound CNC[C@H](O)c1cccc(O)c1 , what normalized growth is on record?
0.986

For the compound COc1ccccc1N1CCN(CCCNc2cc(=O)n(C)c(=O)n2C)CC1 , what normalized growth is on record?
1.01

For the compound C[C@H]1O[C@@H](O[C@H]2[C@@H](O)C[C@H](O[C@H]3[C@@H](O)C[C@H](O[C@H]4CC[C@]5(C)C6CC[C@]7(C)[C@@H](C8=CC(=O)OC8)CC[C@]7(O)C6CC[C@@H]5C4)O[C@@H]3C)O[C@@H]2C)C[C@H](O)[C@@H]1O (some centres not stated) , what normalized growth is on record?
0.99

For the compound CC1(C)S[C@@H]2[C@H](NC(=O)[C@@H](N)c3ccc(O)cc3)C(=O)N2[C@H]1C(=O)O , what normalized growth is on record?
0.983
